# tgt: Neuropeptide Y receptor type 2 (Homo sapiens)
# Sequence (P49146 whole entry): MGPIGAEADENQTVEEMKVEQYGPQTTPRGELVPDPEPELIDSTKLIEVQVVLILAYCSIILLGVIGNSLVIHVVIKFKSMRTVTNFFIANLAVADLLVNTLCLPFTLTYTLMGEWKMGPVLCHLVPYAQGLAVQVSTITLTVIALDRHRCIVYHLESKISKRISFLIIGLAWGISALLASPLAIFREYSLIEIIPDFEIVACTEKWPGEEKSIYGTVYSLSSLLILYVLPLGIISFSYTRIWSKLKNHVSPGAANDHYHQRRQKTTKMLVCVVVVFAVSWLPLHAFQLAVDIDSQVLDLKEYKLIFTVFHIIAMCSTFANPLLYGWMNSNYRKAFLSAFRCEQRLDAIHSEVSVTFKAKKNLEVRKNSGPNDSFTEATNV
# assay_procedure: Displacement of [125I]-PYY from NPYY2 receptor (unknown origin)
readout: pIC50
pIC50 is defined as minus the log10 of a concentration measured in mol/L.

Fill: pIC50 (Neuropeptide Y receptor type 2 (Homo sapiens)) for this compound `CN(C)CCCN(C(=O)c1cc2ccccc2s1)c1ccccc1Cc1ccccc1`
6.35

Please tell me the measured pIC50 for CN(C)CCCN(C(=O)[C@H]1C[C@@H]1c1ccccc1)c1ccccc1SCc1ccccc1 (relative stereo) ; system: Neuropeptide Y receptor type 2 (Homo sapiens).
5.43

----------
# assay_procedure: Half life in rat at 10 mg/kg, sc
# Assay type: ADME, organism-based
# Parameters: dose 10 mg/kg, route subcutaneous
# stated_conditions: in vivo
readout: half-life (min)
Please state the figure in min; there is no need to write the unit.

Tell me measured half-life for CCN(CC)C(=O)C(c1ccccc1)N1CCN(c2ccc(NC(=O)c3ccccc3-c3cccnc3)cc2F)CC1 (stereo unspecified) please.
49.8
